# system_name: Beta-lactamase class C (Enterobacter cloacae)
# assay_text: The compound was evaluated for inhibition against Class C beta-lactamase derived from Enterobacter cloacae P99
recorded_metric: pIC50
# pIC50 is unitless: minus log10 of the molar concentration; print number only

Returns the measured pIC50 for the input compound. Input: N#C/C=C/C1=C(C(=O)O)N2C(=O)/C(=C/c3ccccn3)C2S(=O)(=O)C1 (stereo unspecified)
8.00

###

# system_name: Beta-lactamase class C (Enterobacter cloacae)
# assay_text: The compound was evaluated for inhibition against the GC1 extended spectrum Class C beta-lactamase
recorded_metric: pIC50
API: returns pIC50 as number; meaning -log10 of concentration in mol/L.

Entry N#C/C=C/C1=C(C(=O)O)N2C(=O)/C(=C/c3ccccn3)C2S(=O)(=O)C1 (stereo unspecified) : reported pIC50 = ?
7.92

###

# system_name: Beta-lactamase class C (Enterobacter cloacae)
# assay_text: Inhibition of GC1 extended spectrum class C beta-lactamase
# Set-up: species or system Enterobacter cloacae GC1
pIC50: −log10 of the molar value.
Classes (pIC50): low group (below 6), middle group (6 to below 7), high group (7 or more)

# count of solved cases: 3
>>> print(df.to_string())
                                   compound   class_label
0  C=C1C(/C=C/C(=O)OC(C)(C)C)=C(C(=O)O)N2C(=O)/C(=C/c3ccccn3)C2S1(=O)=O (configuration not stated)     low group
1  COC(=O)/C(Cl)=C/C1=C(C(=O)O)N2C(=O)/C(=C/c3ccccn3)C2S(=O)(=O)C1 (configuration not stated)  middle group
2  NC(=O)OCC1=C(C(=O)O)N2C(=O)/C(=C/c3ccccn3)C2S(=O)(=O)C1 (configuration not stated)  middle group

Hello team, could you let me know which band the following compound falls into: CCOC(=O)CNC(=O)OCC1=C(C(=O)O)N2C(=O)/C(=C/c3ccccn3)C2S(=O)(=O)C1 (configuration not stated)
low group

# bin lookup: classify C=C1C(/C=C/C(=O)OC)=C(C(=O)O)N2C(=O)/C(=C/c3ccccn3)C2S1(=O)=O (configuration not stated) by its pIC50
high group

Textbook exercise: identify the category of the compound given here, NC(=O)/C=C/C1=C(C(=O)O)N2C(=O)/C(=C/c3ccccn3)C2S(=O)(=O)C1 (configuration not stated) , according to its measured value.
high group

Which of the defined bands does the recorded pIC50 of COC(=O)/C=C/C1=C(C(=O)O)N2C(=O)/C(=C/c3ccccn3)C2S(=O)(=O)C1 (configuration not stated) sit within?
middle group

###

Here, each record is paired with measured IC50 data.
# system_name: Beta-lactamase class C (Enterobacter cloacae, UniProt Q59401)
# Sequence (Q59401 whole entry): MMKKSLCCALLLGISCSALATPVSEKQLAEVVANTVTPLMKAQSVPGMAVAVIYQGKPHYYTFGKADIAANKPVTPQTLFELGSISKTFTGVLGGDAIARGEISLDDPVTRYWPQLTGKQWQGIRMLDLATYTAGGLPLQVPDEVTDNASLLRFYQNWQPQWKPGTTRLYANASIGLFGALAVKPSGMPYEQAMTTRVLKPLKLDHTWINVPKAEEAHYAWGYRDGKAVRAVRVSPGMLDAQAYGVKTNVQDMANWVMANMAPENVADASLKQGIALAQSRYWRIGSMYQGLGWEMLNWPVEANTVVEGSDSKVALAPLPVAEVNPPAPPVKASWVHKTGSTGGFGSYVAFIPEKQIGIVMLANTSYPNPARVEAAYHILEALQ
# assay_text: Inhibition of GC1 extended spectrum class C beta-lactamase
# Design: species or system Enterobacter cloacae GC1
Report the figure in nM without appending any unit label.

Below, 4 compounds whose answers are already recorded.
>>> print(df.to_string())
                                   compound  recorded_metric  reported_result
0  C=CC(=O)OCC1=C(C(=O)O)N2C(=O)/C(=C/c3ccccn3)C2S(=O)(=O)C1 (stereo not given)             IC50              900
1  O=C(COc1ccccc1)OCC1=C(C(=O)O)N2C(=O)/C(=C/c3ccccn3)C2S(=O)(=O)C1 (stereo not given)             IC50              130
2  O=C(O)C1=C(/C=C/[N+](=O)[O-])CS(=O)(=O)C2/C(=C\c3ccccn3)C(=O)N12 (stereo not given)             IC50              100
3  COCC1=C(C(=O)O)N2C(=O)/C(=C/c3ccccn3)C2S(=O)(=O)C1 (stereo not given)             IC50             1200

Fill in the blank: the reported IC50 of O=C(O)C1=C(/C=C/c2cccc[n+]2[O-])CS(=O)(=O)[C@@H]2/C(=C\c3ccccn3)C(=O)N12 is ____.
100
